B1: library; a variant is named by its letters at N, in order (parent)
chain: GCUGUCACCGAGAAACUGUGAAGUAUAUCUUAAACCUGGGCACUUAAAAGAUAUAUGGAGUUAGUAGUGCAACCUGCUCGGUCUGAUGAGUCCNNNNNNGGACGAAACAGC

Variants of: B1
ASSAY: FACS-Seq fitted mean relative fluorescence mCherry/BFP with ligand (log10 relative fluorescence); HEK293T; ligand: cyclic di-GMP (c-di-GMP-II aptamer); ligand concentration (+) FACS-Seq: 1 mM; higher = higher reporter protein expression
ASSAY CONTEXT: ligand present: yes
Mark Satisfied for reported FACS-Seq fitted mean (log10) of -0.3 or greater; mark Not satisfied for anything smaller.

Could you please find out whether GCGUAG has FACS-Seq fitted mean (log10) that meets -0.3 or exceeds it?
Not satisfied

Textbook exercise: given the entry UCUUAG , state whether its FACS-Seq fitted mean (log10) is greater than or equal to -0.3.
Satisfied

Is FACS-Seq fitted mean (log10) for CGAAAA at or above -0.3?
Not satisfied

// inclusive: FACS-Seq fitted mean (log10) at least -0.3? input: CGUUUU
Not satisfied

// inclusive: FACS-Seq fitted mean (log10) at least -0.3? input: AGUAAC
Satisfied
